# method.notes: S. cerevisiae RM11-1a growth modifiers, primary screen, strain RM11-1a, OD600, basal, 24 h (AID 1177);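 also: cultures grown under basal conditions with no added stressor; test concentration not given here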
# experimental.parameters: OD600, 24 h, higher = more signal, called active from +8 up or from −8 down
Listed here are compounds together with their documented z-score.
Answer with a bare number; do not write a unit.

mol	value.measured
COC(=O)C(CC#Cc1ccc2c(c1)[C@]1(C(=O)N2)[C@H](C(=O)O)[C@H]2C(=O)O[C@H](c3ccccc3)[C@H](c3ccccc3)N2[C@@H]1c1ccccc1OCCO)C(=O)OC	2.55
[N-]=[N+]=NCc1ccccc1C[C@@]1(C(=O)N2CCCCC2)N=C(c2ccc(OCCCO)cc2)O[C@@H]1c1ccccc1N=[N+]=[N-]	1.41

If you can, please state the reported z-score value of C[C@]1(C(=O)NCCN2CCOCC2)c2ccccc2C(=O)N(Cc2ccc(OC(F)(F)F)cc2)[C@H]1c1ccc(CO)cc1 .
-0.393

# credit: PubChem BioAssay
